The values you see were collected from paper PMC9482650.

Measurement Target: MAGI2_6, Q86UL8
Sequence (Q86UL8 1141-1229): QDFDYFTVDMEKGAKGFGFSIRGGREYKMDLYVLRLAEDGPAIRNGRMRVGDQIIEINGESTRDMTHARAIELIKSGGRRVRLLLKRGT
Procedure Text: holdup assay
Set-up: key: below the threshold = too weak to quantify, mostly under pKd 3.1 to 4
Experimental Setup: plain residues with an end cap or a label only (N-terminal biotin on a linker: ttds)
Readout Kind: pKd
Give a plain numeric answer without units written out.

> print(dat)
                      binder  readout.kind  reported.measurement
1  SHSSKGETAV [FZD7, O75084]           pKd                  4.43
2  SGGKRKETLV [NET1, Q7Z628]           pKd                  3.54

Next item in the queue.
What does the record list as pKd for SSIDLWETAL [SLC15A5, A6NIM6] ?
5.08
